Experiment: NCI Yeast Anticancer Drug Screen. Data for the mec2-1 strain (AID 157)
Conditions: S. cerevisiae mec2-1 strain, at 50.0 µM, stronger effect = higher value
Compounds without any hit were thinned out: in the full panel of roughly 79,000, 15% have a hit.
Below: a set of entries, each annotated with reported growth inhibition.
recorded-endpoint: growth inhibition (%)

| compound | recorded-endpoint | reported-value |
| --- | --- | --- |
| Oc1cccc(-c2nc(-c3ccccc3)c(-c3ccccc3)[nH]2)c1 | growth inhibition | 98.8 |
| N#C/C(=C1C=C/C(=N/O)c2ccccc2/1)c1ccc(Cl)cc1 | growth inhibition | 77.3 |
| CCCCCCCCCc1cc(=O)[nH]c(=S)[nH]1 | growth inhibition | 77.7 |
| c1ccc(CC(Nc2cccnc2)c2ccccc2)cc1 (centres undefined) | growth inhibition | 22.6 |
| CC(C)/C(Cl)=N/OC(=O)Nc1ccc(OC(F)(F)F)cc1 | growth inhibition | 88.3 |
| CCCCC(=O)N/N=C(\C)[C@]1(O)Cc2c(O)c3c(c(O)c2[C@@H](OC2CC(N)C(O)C(C)O2)C1)C(=O)c1c(OC)cccc1C3=O (some centres undefined) | growth inhibition | 99.2 |
| FC(F)(F)c1nc(SCc2ccc(Cl)cc2)n[nH]1 | growth inhibition | -13.8 |
| Cc1ccnc(-c2cc(C)ccn2)c1 | growth inhibition | 23.1 |
| Nc1c(-c2ccc(C3=NCCN3)cc2)[nH]c2cc(C3=NCCN3)ccc12 | growth inhibition | -29 |
| COc1ccc(/C=N/NS(=O)(=O)c2ccccc2)cc1 | growth inhibition | 99.3 |
| Clc1ccc(CNc2ccc(Br)cc2)cc1 | growth inhibition | 85.5 |
| O=c1sc(=S)[nH]c2ccccc12 | growth inhibition | 69.1 |
| Cc1nc(N)sc1N=Nc1ccc(Cl)cc1Cl | growth inhibition | 76.4 |
| CC(C)(C)c1ccc(C(=O)n2c(=S)oc3ccc(Cl)cc32)cc1 | growth inhibition | 61.4 |
| CCc1cccc(C(C)(C)C)c1NC(=S)N/C=C(\C#N)C(=O)c1ccc2ccccc2c1 | growth inhibition | 35.5 |
| CN(C)c1ccc(/C=C(\NC(=O)c2ccccc2)c2nc3ccccc3s2)cc1 | growth inhibition | 97.2 |
| O=c1oc(-c2ccc(Cl)cc2[N+](=O)[O-])nc2ccccc12 | growth inhibition | 63.6 |
| N#CN=[N+]([O-])c1ccc(C(=O)O)cc1 | growth inhibition | 93.8 |
| CC(=O)N(N)c1ccccc1 | growth inhibition | 32.2 |
| Cc1ccc(O)c(C(C)(C)c2ccccc2)c1 | growth inhibition | 99.8 |
| CC1CCN(C(=S)NNC(C)c2cc3ccccc3cn2)CC1 (centres undefined) | growth inhibition | 75.7 |
| O=c1oc2c3ccc4ccccc4c3n(CCCN3CCCCC3)c2c2ccccc12 | growth inhibition | 82.8 |
| Cc1c(N=Nc2ccccc2Cl)c(-c2ccccc2)nn1C(=S)S | growth inhibition | 98.2 |
| CC1=C(C(=O)Nc2cccc(Cl)c2)C(c2ccccc2F)C(C(=O)Nc2cccc(Cl)c2)=C(C)N1 | growth inhibition | 81.8 |

###

Assay: NCI Yeast Anticancer Drug Screen. Data for the sgs1 mgt1 strain (AID 161);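 also: 0% = growth of cultures given vehicle only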
Conditions: S. cerevisiae sgs1 mgt1 strain, at 5.0 µM (retest, dose inferred, filed as 0.5), stronger effect = higher value
The panel holds about 79,000 compounds, 15% with a hit somewhere; the sample as a whole holds those more often.
recorded-endpoint: growth inhibition (%)

| compound | reported-value |
| --- | --- |
| Cc1c2c(c(C)c3c1OC(C)(C)CC3)OC(C)(C)CC2 | -14 |
| N#CSCN1C(=O)C2CC=CCC2C1=O (stereo unspecified) | 8 |
| CN(C)[C@@H]1C(=O)C(C(=O)NCNc2nc3n[nH]nc3c(=O)[nH]2)=C(O)[C@@]2(O)C(=O)C3=C(O)c4c(O)cccc4[C@@](C)(O)[C@H]3C[C@@H]12 | -7 |
| CCN(CC)CCNc1cc(C)nc2c1ccc1c2ccc2c(NCCN(CC)CC)cc(C)nc21 | -3 |
| N#Cc1c(-c2ccc(Cl)c(Cl)c2)c(-c2ccc(Cl)c(Cl)c2)nn(CC(=O)O)c1=O | 2 |
| CCOC(=O)C[n+]1c(C)sc2ccccc21 | 0 |
| CSC(=S)N/N=C(\C)c1ccc[nH]1 | 13 |
| C1=CC2OC2CCCCCCCC1 (mixture of isomers) | 2 |
| CC(C)(C)C(=O)CC(=O)C(F)(F)C(F)(F)C(F)(F)F.CC(C)(C)C(=O)CC(=O)C(F)(F)C(F)(F)C(F)(F)F.CC(C)(C)C(=O)CC(=O)C(F)(F)C(F)(F)C(F)(F)F.[Gd] | 3 |
| N[C@@H]1CCCC[C@@H]1N.O=C([O-])CN(CP(=O)([O-])[O-])CP(=O)([O-])[O-].[Pt+2] | 8 |
| COc1cccc2nc3c(C(=O)NCCN(C)C)cccc3cc12 | 24 |
| C/C(=N\NS(=O)(=O)c1ccc(C)cc1)c1cc2ccccc2n1C | -17 |
| COc1cccc(-c2cc(=O)c3c(C)ccnc3[nH]2)c1 | 15 |
| COc1cc(C2c3cc4c(cc3[C@@H](Nc3cccc(O)c3)C3COC(=O)[C@H]23)OCO4)cc(OC)c1O (stereo partly specified) | 28 |
| CCCC(=O)Oc1ccc(-c2ccc(Br)cc2)cc1 | 3 |
| COc1ccc(CN2CCCN(Cc3ccc(OC)cc3OC)C2c2cc(Cl)cc(Cl)c2O)c(OC)c1 | -10 |
| NC1=NOC(=O)C1Cc1ccccc1 (stereo unspecified) | -1 |
| COc1cc(C=O)c(C=O)cc1OC | 3 |
| CCOC(=O)c1c(N2CCCC2)nsc1Nc1ccc(F)cc1 | 13 |
| CC(=O)c1c(O)ccc2nc3ccccc3nc12 | 14 |
| COc1ccccc1CN1CCCN(Cc2ccccc2OC)C1c1cc(Cl)cc(Cl)c1O | 19 |
